Values from PubChem BioAssay (NCI)

- Tested on: OVCAR-8 ovarian
- Protocol Text: NCI tumour cell line growth inhibition, 48 h
Attribute Measured: GI50

Compound	GI50
COc1ccc(-c2cc(/C=C3\C(=O)Nc4cc(Cl)ccc43)[nH]n2)cc1	4.55 µM
C/C(CCC(=O)O)=N/Nc1ccc([N+](=O)[O-])cc1	42.6 µM
OCc1ccc(-c2csc(-c3ccc(CO)o3)c2)o1	31.5 µM
NC(=O)c1cccc2c(N[C@H](CN3CCC3)c3ccc(Cl)c(C(F)(F)F)c3)ncnc12	4.55 µM
CN1CCN(Cc2ccc(NC(=O)c3cncc(C#Cc4c(N)ncc5ccc(C#N)cc45)c3)cc2C(F)(F)F)CC1	0.926 µM
COc1cc2c3c(n(CCCN(CCCN(CCCn4c5c(c6ccccc6c4=O)C(=O)c4ccccc4-5)C(=O)OC(C)(C)C)C(=O)OC(C)(C)C)c(=O)c2cc1OC)-c1cc2c(cc1C3=O)OCO2	> 100 µM
CCn1c(-c2nonc2N)nc2c(C#CC(C)(C)O)ncc(OC3CCNCC3)c21	12.9 µM
O=[N+]([O-])c1ccc(/C=C/c2nc3ccc(Cl)cc3[nH]2)cc1	24.5 µM

Respond only with GI50 recorded for O=C1/C(=C/c2ccc([N+](=O)[O-])s2)Oc2cc(Cl)ccc21
0.469 µM

Supply GI50 value. Item: Cc1ccc([P+](Cc2ccccc2)(c2ccccc2)c2ccccc2)cc1
1.74 µM

Report GI50 for CCCCCCC1N=C(N)N=C(N)N1c1cccc(Cl)c1 (centres undefined)
0.612 µM

Identify GI50 associated with the compound COC(=O)c1cc(NC(=O)c2cc(NC(=O)c3cc([N+](=O)[O-])n(C)c3)cn2C)cn1C
> 100 µM

Given COc1cc(OC)cc(Oc2cnc3cc(N)cc(N)c3n2)c1 , respond with its GI50.
22.6 µM

Name the recorded GI50 of the compound listed here: CC1CCC2C(C)C(=O)OC3OC4(C)CCC1C32OO4 (centres undefined)
> 100 µM

====

- Tested on: SF-295 CNS
- Protocol Text: NCI tumour cell line growth inhibition, 48 h; in the data active = GI50 below about 0.43 µM; inactive = the rest
Mark one answer only. Choices: active, inactive

Record excerpt, results attached:
Compound	Group
CS(=O)(=O)N1CCC(n2c(=O)c(Oc3ccc(F)cc3F)cc3cnc(NC4CCOCC4)nc32)CC1	inactive
C[C@H](c1ccc(F)cc1CCCC(=O)O)N(c1cc(F)ccc1F)S(=O)(=O)c1ccc(Cl)cc1	inactive
Oc1c(C(Nc2ccccn2)c2cccc(Oc3ccccc3)c2)ccc2cccnc12 (stereo not drawn)	active
CN(C)C1CCN(Cc2ccc(NC(=O)c3cncc(C#Cc4cnc(N)c5ncccc45)c3)cc2C(F)(F)F)CC1	inactive
O=C([O][Hg][c]1ccccc1)c1ccccc1	inactive

Call for entry COc1cc2c3c(n(CCCN4CCNCC4)c(=O)c2cc1OC)-c1cc2c(cc1C3=O)OCO2 :
active

What classification did Cc1ccc([P+](Cc2ccccc2)(c2ccccc2)c2ccccc2)cc1 end up with in this test?
inactive

Tell me the recorded outcome of this test for Oc1cc(N2CC2)c(O)cc1N1CC1 .
active

====

- System: SK-OV-3 ovarian
- Protocol Text: NCI tumour cell line growth inhibition, 48 h; in the data active means GI50 below about 0.43 µM; inactive means the rest
Please answer using one outcome listed in active, inactive

Worked set:
Compound	Assayed System	Group
CCC(C)(C)c1cc(O)c(C(C)(C)CC)cc1O	SK-OV-3 ovarian	inactive
CN1CCN(C(=O)[C@@]2(C)CC[C@]3(C)CC[C@]4(C)C(=CC[C@@H]5[C@@]6(C)CCC(=O)NC(C)(C)[C@@H]6CC[C@]54C)[C@@H]3C2)CC1	SK-OV-3 ovarian	inactive
Cc1ccc(C)c2c1C(=O)N(c1ccc(F)cc1F)C2=O	SK-OV-3 ovarian	inactive
Oc1c(C(Nc2ccccn2)c2cccc(Oc3ccccc3)c2)ccc2cccnc12 (stereo not drawn)	SK-OV-3 ovarian	inactive
Cc1ccc(-c2nc3nc(-c4ccc(F)cc4)nc(N4CCNCC4)c3o2)cc1	SK-OV-3 ovarian	inactive

For this compound, state the assay outcome: NC(=O)c1cccc2c(N[C@H](CN3CCC3)c3ccc(Cl)c(C(F)(F)F)c3)ncnc12
inactive

I'd appreciate the recorded outcome for COc1cc2c3c(n(CCCN4CCNCC4)c(=O)c2cc1OC)-c1cc2c(cc1C3=O)OCO2 from this test.
inactive

Entry COc1cc2c3c(n(CCCN(CCCN(CCCn4c5c(c6ccccc6c4=O)C(=O)c4ccccc4-5)C(=O)OC(C)(C)C)C(=O)OC(C)(C)C)c(=O)c2cc1OC)-c1cc2c(cc1C3=O)OCO2 : call = ?
inactive

Test call, this compound: OCc1ccc(-c2csc(-c3ccc(CO)o3)c2)o1
inactive

// param item: O=C(CCCn1c2c(sc3ccccc32)c(=O)n2nnc(-c3ccccc3)c12)NCCc1cnc[nH]1 ; yields the recorded call
inactive

====

- System: UACC-257 melanoma
- Protocol Text: NCI tumour cell line growth inhibition, 48 h
Listed molecules paired with reported TGI
// units = µM; emit number, no label

Worked set:
Molecule	Assayed System	TGI, µM
O=C1/C(=C/c2ccc(O)cc2)CCCC1CN1CCCCC1 (stereo not given)	UACC-257 melanoma	6.72
CN1CC=C(c2cc(NC(=O)Nc3ccc(Oc4ccnc(NC(=O)C5CC5)c4)c(F)c3)cc(C(F)(F)F)c2)CC1	UACC-257 melanoma	3.24
CC(=O)OCC12CN(C#N)C3C4COC(CC41)C1(C(=O)N(C)c4ccccc41)C32 (stereo not given)	UACC-257 melanoma	51.8

Tell me measured TGI for Nc1nc(N)c(CCCCc2ccccc2)c(C=O)n1 please.
33.3

====

- Tested on: SNB-19 CNS
- Protocol Text: NCI tumour cell line growth inhibition, 48 h
Where a SMILES comes first, the peptide text is derived from it. The star is where a group is joined. Boc = CC(C)(C)OC(=O)*
Attribute Measured: TGI

Some solved entries appear below for comparison.
Compound	Assayed System	TGI
O=P(O)(O)c1ccc(-c2ccc(I)cc2)cc1	SNB-19 CNS	> 100 µM
CC[C@@]1(O)C[C@H](OC2CC(N(C)C)C(O)C(C)O2)c2c(cc3c(c2O)C(=O)c2c(O)ccc(O)c2C3=O)[C@H]1C(=O)OC (stereo partly drawn)	SNB-19 CNS	2.91 µM
COC(=O)C(Cc1ccccc1)NC(=O)C(CS)NC(=O)OC(C)(C)C (stereo not drawn) (Boc-Cys-Phe-OMe; configuration not given here)	SNB-19 CNS	> 100 µM

Respond only with TGI recorded for C/C(CCn1[nH]c(=O)ccc1=O)=N\NC(=O)C(N)=O
> 100 µM

Could you please provide reported TGI for C=C(C)[C@@H](O)[C@H](O)C[C@H](C)C1CC[C@]2(C)C1=CC[C@@H]1[C@@]3(C)CC[C@@H](OC(C)=O)C(C)(C)[C@@H]3C[C@@H](OC3OC(COC(C)=O)C(O)C(O)C3O)[C@]12C (stereo partly drawn) ? Thanks!
14.7 µM

Query TGI for CC(=O)OCC1OC(N2C(=O)NC(=O)C3C=C4CCCCC4=CC32)CC1OC(C)=O (stereo not drawn)
> 100 µM

Look up and report measured TGI for this entry: OCC1OC2c3ccccc3COC2C1OCc1ccccc1 (stereo not drawn)
> 100 µM

Let me know recorded TGI for CCC(=O)Nc1cccc(N=Cc2ccc(OC(=O)/C=C\c3ccccc3)cc2)c1 , thanks.
> 75 µM

Query TGI for CSc1cc(Cl)c(C)cc1S(=O)(=O)NC(=O)NNc1ccc(F)cc1
> 100 µM

Return TGI for the following compound: CCOC(=O)c1nc2ccc(OC)cc2c2c1Cc1ccccc1-2
> 100 µM

Check the records and state TGI for COc1ccc(-c2oc3ccccc3c(=O)c2O)cc1OC
> 100 µM

Give me measured TGI, please, for this compound: CC(=O)OCC1OC(n2cnc3nc(Br)[nH]c(=O)c32)C(OC(C)=O)C1OC(C)=O (stereo not drawn)
> 100 µM

Name the recorded TGI of the compound listed here: CC(=O)O[C@H]1C(=O)[C@@]2(C)[C@H]([C@H](OC(=O)c3ccccc3)[C@]3(O)C[C@H](OC(=O)[C@H](O)[C@@H](NC(=O)c4ccccc4)c4ccc5ccccc5c4)C(C)=C1C3(C)C)[C@]1(OC(C)=O)CO[C@@H]1C[C@@H]2O
> 31.8 µM

Hello, please tell me recorded TGI for this one: Cc1ccc([Se](=C(C(=O)c2ccccc2)C(=O)c2ccccc2)c2ccc(C)cc2)cc1
> 100 µM

Name the recorded TGI of the item COC(=O)C1CSC(c2csc(CCN)n2)=N1 (stereo not drawn) in your answer.
> 100 µM

Identify measured TGI corresponding to O=C1Nc2ccccc2/C1=C\c1c(-c2ccccc2)nc2sccn12
> 43.7 µM

For O=C(CCC(=O)Nc1ccc(Cl)c(Cl)c1)CC(=O)c1ccc2ccccc2c1 , write its TGI.
> 100 µM

In one line, give reported TGI of the entry O=C(COc1ccccc1Cl)N1N=C(c2ccccc2)CC1(O)c1ccccc1 (stereo not drawn) .
45.4 µM
